- Protocol description: in vivo
- Condition parameters: NODSCID IL2RKO, mouse, iv, 3.7 MBq, total radioactivity, % ID/g Right Kidney Average
Where a SMILES comes first, the peptide text is derived from it. [ ]: non-standard residue; d: D form. The star is where a group is joined. DOTA = O=C(O)CN1CCN(CC(=O)O)CCN(CC(=O)*)CCN(CC(=O)O)CC1; Hyp = O=C(O)[C@@H]1C[C@@H](O)CN1; Cha = N[C@@H](CC1CCCCC1)C(=O)O; PEG2 = NCCOCCOCCC(=O)O

- Compound: "CC(C)C[C@H](NC(=O)[C@@H]1CCCN1C(=O)[C@H](CO)NC(=O)[C@H](CC1CCCCC1)NC(=O)CNC(=O)[C@@H]1C[C@@H](O)CN1C(=O)[C@@H]1CCCN1C(=O)[C@H](CCCNC(=N)N)NC(=O)[C@H](CCCCN)NC(=O)CCOCCOCCNC(=O)CN1CCN(CC(=O)O)CCN(CC(=O)O)CCN(CC(=O)O)CC1)C(=O)O [Ga-68 Peptide 3, metal not drawn] ({DOTA-PEG2}-KRP[Hyp]G[Cha]SPL-OH)"
  Units label: "%ID/g"
  tissue uptake at 1 h: 6.79

###

- Protocol description: in vivo
- Condition parameters: NODSCID IL2RKO, mouse, iv, 3.7 MBq, total radioactivity, % ID/g Liver Average
Where a SMILES comes first, the peptide text is derived from it. [ ]: non-standard residue; d: D form. The star is where a group is joined. DOTA = O=C(O)CN1CCN(CC(=O)O)CCN(CC(=O)*)CCN(CC(=O)O)CC1; Hyp = O=C(O)[C@@H]1C[C@@H](O)CN1; Cha = N[C@@H](CC1CCCCC1)C(=O)O; PEG2 = NCCOCCOCCC(=O)O

- Compound: "CC(C)C[C@H](NC(=O)[C@@H]1CCCN1C(=O)[C@H](CO)NC(=O)[C@H](CC1CCCCC1)NC(=O)CNC(=O)[C@@H]1C[C@@H](O)CN1C(=O)[C@@H]1CCCN1C(=O)[C@H](CCCNC(=N)N)NC(=O)[C@H](CCCCN)NC(=O)CCOCCOCCNC(=O)CN1CCN(CC(=O)O)CCN(CC(=O)O)CCN(CC(=O)O)CC1)C(=O)O [Ga-68 Peptide 3, metal not drawn] ({DOTA-PEG2}-KRP[Hyp]G[Cha]SPL-OH)"
  tissue uptake at 1 h [%ID/g]: 0.16

###

- Protocol description: in vivo
- Condition parameters: NODSCID IL2RKO, mouse, iv, 3.7 MBq, total radioactivity, % ID/g Plasma Average
Where a SMILES comes first, the peptide text is derived from it. [ ]: non-standard residue; d: D form. The star is where a group is joined. DOTA = O=C(O)CN1CCN(CC(=O)O)CCN(CC(=O)*)CCN(CC(=O)O)CC1; Hyp = O=C(O)[C@@H]1C[C@@H](O)CN1; Cha = N[C@@H](CC1CCCCC1)C(=O)O; PEG2 = NCCOCCOCCC(=O)O

- Compound: "CC(C)C[C@H](NC(=O)[C@@H]1CCCN1C(=O)[C@H](CO)NC(=O)[C@H](CC1CCCCC1)NC(=O)CNC(=O)[C@@H]1C[C@@H](O)CN1C(=O)[C@@H]1CCCN1C(=O)[C@H](CCCNC(=N)N)NC(=O)[C@H](CCCCN)NC(=O)CCOCCOCCNC(=O)CN1CCN(CC(=O)O)CCN(CC(=O)O)CCN(CC(=O)O)CC1)C(=O)O [Ga-68 Peptide 3, metal not drawn] ({DOTA-PEG2}-KRP[Hyp]G[Cha]SPL-OH)"
  tissue uptake at 1 h, %ID/g: 0.77

###

- Protocol description: in vivo
- Condition parameters: NODSCID IL2RKO, mouse, iv, 3.7 MBq, total radioactivity, % ID/g Small Intestine Average
Where a SMILES comes first, the peptide text is derived from it. [ ]: non-standard residue; d: D form. The star is where a group is joined. DOTA = O=C(O)CN1CCN(CC(=O)O)CCN(CC(=O)*)CCN(CC(=O)O)CC1; Hyp = O=C(O)[C@@H]1C[C@@H](O)CN1; Cha = N[C@@H](CC1CCCCC1)C(=O)O; PEG2 = NCCOCCOCCC(=O)O

- Molecule: "CC(C)C[C@H](NC(=O)[C@@H]1CCCN1C(=O)[C@H](CO)NC(=O)[C@H](CC1CCCCC1)NC(=O)CNC(=O)[C@@H]1C[C@@H](O)CN1C(=O)[C@@H]1CCCN1C(=O)[C@H](CCCNC(=N)N)NC(=O)[C@H](CCCCN)NC(=O)CCOCCOCCNC(=O)CN1CCN(CC(=O)O)CCN(CC(=O)O)CCN(CC(=O)O)CC1)C(=O)O [Ga-68 Peptide 3, metal not drawn] ({DOTA-PEG2}-KRP[Hyp]G[Cha]SPL-OH)"
  Units label: "%ID/g"
  tissue uptake at 1 h: 0.2

###

- System: HEK-293 and HEK-293/BKRB1 tumours
- Protocol description: Biodistribution of Ga-68 Peptide 12 in tumour-bearing mice
- Format: in vivo, mouse
- Condition parameters: Left tumour; 1 h post-injection

- Compound: "N=C(N)NCCC[C@H](NC(=O)[C@H](CCCCN)NC(=O)CCCCCNC(=O)CN1CCN(CC(=O)O)CCN(CC(=O)O)CCN(CC(=O)O)CC1)C(=O)N1CCC[C@H]1C(=O)N1C[C@H](O)C[C@H]1C(=O)NCC(=O)N[C@@H](CC1CCCCC1)C(=O)N[C@@H](CO)C(=O)N1CCC[C@H]1C(=O)N[C@H](Cc1ccccc1)C(=O)O [Ga-68 Peptide 12, metal not drawn]"
  Measurement target: "HEK-293 and HEK-293/BKRB1 tumours"
  Units label: "%ID/g"
  Biodistribution Left tumour Average: 0.194

###

- System: HEK-293 and HEK-293/BKRB1 tumours
- Protocol description: Biodistribution of Ga-68 Peptide 12 in tumour-bearing mice
- Type: in vivo, mouse
- Condition parameters: Tail; 1 h post-injection
- Source text: Peptide 12 is an […] version of Peptide 3 that was developed by substituting the C-terminal Leu residue with a D-Phe residue.

- Compound: "N=C(N)NCCC[C@H](NC(=O)[C@H](CCCCN)NC(=O)CCCCCNC(=O)CN1CCN(CC(=O)O)CCN(CC(=O)O)CCN(CC(=O)O)CC1)C(=O)N1CCC[C@H]1C(=O)N1C[C@H](O)C[C@H]1C(=O)NCC(=O)N[C@@H](CC1CCCCC1)C(=O)N[C@@H](CO)C(=O)N1CCC[C@H]1C(=O)N[C@H](Cc1ccccc1)C(=O)O [Ga-68 Peptide 12, metal not drawn]"
  Biodistribution Tail Average (%ID/g): 0.226

###

- Measurement target: B1R (Homo sapiens)
- Sequence (P46663 whole entry): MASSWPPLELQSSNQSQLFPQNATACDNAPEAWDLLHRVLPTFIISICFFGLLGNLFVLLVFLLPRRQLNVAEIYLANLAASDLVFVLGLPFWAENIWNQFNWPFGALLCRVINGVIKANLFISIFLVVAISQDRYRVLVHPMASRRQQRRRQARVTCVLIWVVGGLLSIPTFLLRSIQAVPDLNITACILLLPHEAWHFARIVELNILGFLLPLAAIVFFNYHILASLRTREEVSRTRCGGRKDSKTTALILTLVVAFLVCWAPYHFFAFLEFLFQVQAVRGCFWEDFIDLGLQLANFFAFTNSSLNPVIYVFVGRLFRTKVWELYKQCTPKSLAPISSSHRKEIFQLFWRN
- Protocol description: Competitive binding assay with 3H radioligand on CHO-K1 cell membranes over-expressing human B1R
- Set-up: purchased Perkin Elmer Inc., Waltham, Mass; ES-091-M400UA; host or cells: CHO-K1 cells over-expressing human B1R (membrane preparation)
- Condition parameters: average of individual competitive binding assays; read-out: Affinity Ki (nM) Average
- Method: The ability of the peptide and small molecule B1R targeting compounds to bind to B1R was assessed in competitive binding assay as described below. Preparation of Cell Membranes: Ready to use cell membranes (12.5 μg/μL) from CHO-K1 cells over-expressing human B1R were obtained from Perkin Elmer Inc., Waltham, Mass. (cat. no. ES-091-M400UA). […] Protein concentration was determined by Bradford assay (cat. no. R1271, Fermentas, Thermo Fisher Scientific, Burlington, ON). […]

- Molecule: "COc1cc(C)c(S(=O)(=O)N(C)CCOCC(=O)N2CCC(C3CCN(CCF)CC3)CC2)c(C)c1"
  Units label: "nM"
  Ki: 0.81
- Molecule: "Cc1ccc(S(=O)(=O)N2c3ccccc3NC(=O)[C@H]2CC(=O)NCCc2ccc(NCCF)cc2)cc1"
  Units label: "nM"
  Ki: 1010
- Molecule: "Cc1ccc(S(=O)(=O)N2c3ccccc3NC(=O)[C@H]2CC(=O)Nc2ccc(N3CCN(CCF)CC3)cc2)cc1"
  Units label: "nM"
  Ki: 108
- Molecule: "Cc1ccc(S(=O)(=O)N2c3ccccc3NC(=O)[C@H]2CC(=O)NCc2ccc(NCCF)cc2)cc1"
  Units label: "nM"
  Ki: 6920

###

- Protocol description: in vivo
- Condition parameters: NODSCID/IL2RKO, mouse, total radioactivity, uptakes in both B1R-negative and B1R-positive tumors

- Compound: "CC(C)C[C@H](NC(=O)[C@@H]1CCCN1C(=O)[C@H](CO)NC(=O)[C@H](Cc1ccccc1)NC(=O)CNC(=O)[C@@H]1CCCN1C(=O)[C@@H]1CCCN1C(=O)[C@H](CCCNC(=N)N)NC(=O)[C@H](CCCCN)NC(=O)CCCCCNC(=O)CN1CCN(CC(=O)O)CCN(CC(=O)O)CCN(CC(=O)O)CC1)C(=O)O [[^68Ga]-Peptide 4, metal not drawn]"
  Units label: "%ID/g"
  tissue uptake at 1 h: 1.1
